# assay overview: Critical aggregation concentration by surface tension (Du Noüy ring, K100 tensiometer)
# Format: physicochemical
# setup conditions: unbuffered aqueous solution, 298 K
# Protocol: The identity of the purified peptides was confirmed with electrospray ionization mass spectrometry (ESI-MS) in positive ion mode. Results of MS analyses and net charge are attached in Supplementary Materials (Table S1). Peptides’ hydrophobicity was evaluated by analytical reversed-phase high-performance liquid chromatography (RP-HPLC). […]
Where a SMILES comes first, the peptide text is derived from it. Bridges are numbered along the chain shown (N, C = ends). Roman numbers before positions name the chains, in order. Side-chain parts run from the residue outwards. The star is where a group is joined. Decanoyl = CCCCCCCCCC(=O)*; Octanoyl = CCCCCCCC(=O)*
test readout: Surface Tension at CAC (mN/m)

compound	test readout	result value
CCCCCCCC(=O)N[C@@H](Cc1ccccc1)C(=O)N[C@@H](CCCNC(=N)N)C(=O)N[C@@H](CCCNC(=N)N)C(=O)N[C@@H](CSSC[C@H](NC(=O)[C@H](CCCNC(=N)N)NC(=O)[C@H](CCCNC(=N)N)NC(=O)[C@H](Cc1ccccc1)NC(=O)CCCCCCC)C(N)=O)C(N)=O [Compound C5] (I: Octanoyl-FRRC-NH2 / II: Octanoyl-FRRC-NH2; disulfide I:4-II:4)	Surface Tension at CAC	37
CCCCCCCCCC(=O)N[C@@H](CCCNC(=N)N)C(=O)N[C@@H](CCCNC(=N)N)C(=O)NCCCC[C@H](NC(=O)[C@H](CCCNC(=N)N)NC(=O)[C@H](CCCNC(=N)N)NC(=O)CCCCCCCCC)C(N)=O [Compound B2] (Decanoyl-Arg-Arg-Lys([Arg-Arg-Decanoyl])-NH2)	Surface Tension at CAC	36
